biological target: VR1 (Homo sapiens); assay: Calcium uptake assay, low pH (proton) stimulus; format: cell-based; set-up: expressed in transfected cells; host or cells: T-REx HEK 293 (Invitrogen), pcDNA5/TO vector; details: HEK293; 0.3 μM compound; low pH agonist; HEK 293 cells expressing hVR1; read-out: Low pH % Inhib. @ 0.3 μM
Sequence (Q8NER1 whole entry): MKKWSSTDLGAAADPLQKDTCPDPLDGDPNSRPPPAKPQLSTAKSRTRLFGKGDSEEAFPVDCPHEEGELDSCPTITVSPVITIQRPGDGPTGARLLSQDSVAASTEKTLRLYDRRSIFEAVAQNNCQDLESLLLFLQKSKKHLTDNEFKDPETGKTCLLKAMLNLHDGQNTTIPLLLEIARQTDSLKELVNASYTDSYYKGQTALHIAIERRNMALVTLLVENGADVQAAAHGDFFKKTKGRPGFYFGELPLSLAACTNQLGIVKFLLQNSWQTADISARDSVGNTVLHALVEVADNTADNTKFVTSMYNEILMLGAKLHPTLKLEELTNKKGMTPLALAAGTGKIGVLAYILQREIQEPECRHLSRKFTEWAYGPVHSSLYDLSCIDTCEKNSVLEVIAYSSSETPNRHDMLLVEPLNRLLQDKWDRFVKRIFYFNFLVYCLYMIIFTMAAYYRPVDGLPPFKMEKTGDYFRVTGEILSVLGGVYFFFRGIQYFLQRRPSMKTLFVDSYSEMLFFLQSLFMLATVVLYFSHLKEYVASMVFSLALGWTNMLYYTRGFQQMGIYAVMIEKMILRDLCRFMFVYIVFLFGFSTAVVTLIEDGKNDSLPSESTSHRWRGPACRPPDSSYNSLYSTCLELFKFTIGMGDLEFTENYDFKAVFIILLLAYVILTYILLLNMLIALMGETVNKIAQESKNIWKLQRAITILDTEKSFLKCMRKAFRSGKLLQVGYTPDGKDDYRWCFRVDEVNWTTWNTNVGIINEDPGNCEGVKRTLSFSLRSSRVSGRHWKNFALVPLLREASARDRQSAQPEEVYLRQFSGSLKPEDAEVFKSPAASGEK
Entry flag: satisfied if inhibition at 0.3 µM reaches 90%; not satisfied if it does not.

compound	tested-target	label-value
O=C(Nc1cc2c(cc1Cl)NCCO2)c1ccc(/C=C/C(F)(F)F)cc1	VR1 (Homo sapiens)	not satisfied
O=C(Nc1ccc2c(c1)OCCN2)c1ccc(C#CC2CC2)cc1F	VR1 (Homo sapiens)	satisfied
C/C(=C/C(C)(C)C)c1ccc(C(=O)Nc2ccc3[nH]ccc3c2)cc1	VR1 (Homo sapiens)	not satisfied
Cc1cc(C#CC2CC2)ccc1C(=O)Nc1ccc2c(c1)OCCO2	VR1 (Homo sapiens)	not satisfied
CC(C)(C)C#Cc1ccc(C(=O)Nc2ccc3c(c2)OC(F)(F)O3)cc1	VR1 (Homo sapiens)	not satisfied
Cc1cc(/C=C/C(F)(F)F)ccc1C(=O)Nc1ccc2c(c1)OCCN2	VR1 (Homo sapiens)	satisfied
O=C(Nc1ccc2c(c1)OC(CO)CO2)c1ccc(C#CC2CC2)cc1 (stereo not drawn)	VR1 (Homo sapiens)	not satisfied
Cc1cc(C#CC2CC2)ccc1C(=O)Nc1ccc2c(c1)OCCN2	VR1 (Homo sapiens)	satisfied
CN1CCOc2ccc(NC(=O)c3ccc(/C=C/C(F)(F)F)cc3)cc21	VR1 (Homo sapiens)	not satisfied
CC(C)(C)C#Cc1ccc(C(=O)Nc2ccc3c(c2)OCCN3)c(F)c1	VR1 (Homo sapiens)	satisfied
O=C(Nc1ccc2c(c1)OC[C@@H](CO)N2)c1ccc(C#CC2CC2)cc1F	VR1 (Homo sapiens)	satisfied
Cc1cc(C#CC(C)(C)C)ccc1C(=O)Nc1cnc2[nH]c(CO)nc2c1	VR1 (Homo sapiens)	not satisfied
O=C(Nc1ccc2c(c1)OCCN2)c1ccc(C#CC2CCCC2)cc1	VR1 (Homo sapiens)	satisfied
Cc1cc(C#CC(C)(C)C)ccc1C(=O)Nc1cccc2c(Cl)cccc12	VR1 (Homo sapiens)	not satisfied
Cc1cc(C#CC(C)(C)C)ccc1C(=O)Nc1ccc2sc(CO)nc2c1	VR1 (Homo sapiens)	satisfied
O=C(Nc1ccc2c(c1)NCCO2)c1ccc(C#CC2CCCC2)cc1	VR1 (Homo sapiens)	not satisfied
Cc1nc2cc(NC(=O)c3ccc(/C=C/C(F)(F)F)cc3C)ccc2s1	VR1 (Homo sapiens)	not satisfied

----------
Listed here are compounds together with their documented inhibition at 0.3 µM.
biological target: VR1 (Homo sapiens, UniProt Q8NER1); test: Calcium uptake assay, low pH (proton) stimulus; format: cell-based; design: expressed in transfected cells; host or cells: T-REx HEK 293 (Invitrogen), pcDNA5/TO vector; conditions: HEK293; 0.3 μM compound; low pH agonist; HEK 293 cells expressing hVR1; read-out: Low pH % Inhib. @ 0.3 μM

compound	tested-target	unit-of-measure	inhibition at 0.3 µM
Cc1cc(/C=C/C(F)(F)F)ccc1C(=O)Nc1ccc2c(c1)OCC(O)CN2 (stereo not drawn)	VR1 (Homo sapiens, UniProt Q8NER1)	%	87
O=C(Nc1cnc2ccccc2c1)c1ccc(/C=C/C(F)(F)F)cc1	VR1 (Homo sapiens, UniProt Q8NER1)	%	54
CC(C)(O)COc1cc(C(=O)Nc2ccc3c(c2)OCCO3)ccc1C#CC1CC1	VR1 (Homo sapiens, UniProt Q8NER1)	%	1
CN1C(=O)C(C)(C)Oc2ccc(NC(=O)c3ccc(/C=C/C(F)(F)F)cc3)cc21	VR1 (Homo sapiens, UniProt Q8NER1)	%	32
O=C(Nc1ccc2c(c1)OCCN2)c1ccc(C#CC2CC2)c(OCC2CC2)c1	VR1 (Homo sapiens, UniProt Q8NER1)	%	85
O=C(Nc1ccc2c(c1)S(=O)(=O)C=C2)c1ccc(/C=C/C(F)(F)F)cc1	VR1 (Homo sapiens, UniProt Q8NER1)	%	71
CC(C)(C)C#Cc1ccc(C(=O)Nc2ccc3c(c2)OC[C@H](CO)N3)c(F)c1	VR1 (Homo sapiens, UniProt Q8NER1)	%	109
O=C(Nc1cnc2ccccc2c1)c1ccc(/C=C/C(F)(F)F)cc1F	VR1 (Homo sapiens, UniProt Q8NER1)	%	9
Cc1cc(C#CC2CCCC2)ccc1C(=O)Nc1ccc2c(c1)OCCN2	VR1 (Homo sapiens, UniProt Q8NER1)	%	95
Cc1cc(C#CC(C)(C)C)ccc1C(=O)Nc1cccc2cnccc12	VR1 (Homo sapiens, UniProt Q8NER1)	%	98
CC(C)(C)/C=C/c1ccc(C(=O)Nc2cnc3ccccc3c2)cc1	VR1 (Homo sapiens, UniProt Q8NER1)	%	101
Cc1cc(/C=C/C(F)(F)F)ccc1C(=O)Nc1cnc2[nH]ccc2c1	VR1 (Homo sapiens, UniProt Q8NER1)	%	99
CN1CCCc2ccc(NC(=O)c3ccc(/C=C/C(F)(F)F)cc3)cc21	VR1 (Homo sapiens, UniProt Q8NER1)	%	98
Cc1cc(C#CC2CC2)ccc1C(=O)Nc1ccc2c(c1)OCC(CO)O2 (stereo not drawn)	VR1 (Homo sapiens, UniProt Q8NER1)	%	108
CC(C)(C)C#Cc1ccc(C(=O)Nc2cnc3ccccc3c2)cc1	VR1 (Homo sapiens, UniProt Q8NER1)	%	101
CC(=CC(F)(F)F)c1ccc(C(=O)Nc2cccc3cnccc23)cc1	VR1 (Homo sapiens, UniProt Q8NER1)	%	88
CC(C)/C=C/c1ccc(C(=O)Nc2ccc3c(c2)OCCO3)cc1	VR1 (Homo sapiens, UniProt Q8NER1)	%	26
CC(C)(C)C#Cc1ccc(C(=O)Nc2ccc3c(c2)N(CCN2CCOCC2)CC3(C)C)cc1	VR1 (Homo sapiens, UniProt Q8NER1)	%	8

----------
Listed here are molecules together with their documented inhibition at 0.3 µM.
target: VR1 (Homo sapiens, UniProt Q8NER1); assay: Calcium uptake assay, low pH (proton) stimulus; assay type: cell-based; set-up: expressed in transfected cells; host or cells: T-REx HEK 293 (Invitrogen), pcDNA5/TO vector; conditions: HEK293; 0.3 μM compound; low pH agonist; HEK 293 cells expressing hVR1; read-out: Low pH % Inhib. @ 0.3 μM

molecule	inhibition at 0.3 µM (%)
O=C(Nc1ccc2c(c1)OCC(CO)N2)c1ccc(/C=C/C(F)(F)F)cc1F (stereo not drawn)	105
Cc1cc(C#CC(C)(C)C)ccc1C(=O)Nc1cnc2cc(CO)ccc2c1	31
O=C(Nc1ccc2c(c1)OC[C@@H](CO)O2)c1ccc(/C=C/C(F)(F)F)cc1	116
O=C(Nc1ccc2c(c1)OCC(CO)N2)c1ccc(C#CC2CC2)cc1F (stereo not drawn)	100
O=C(Nc1ccc2c(c1)OCCO2)c1ccc(/C=C/C(F)(F)F)cc1F	70
Cc1nc2cc(NC(=O)c3c(F)cc(C#CC(C)(C)C)cc3F)ccc2s1	99
O=C(Nc1ccc2c(c1)OCCO2)c1ccc(C#CC2CCCC2)cc1	42
CC1=Cc2c(cccc2NC(=O)c2ccc(/C=C/C(F)(F)F)cc2)NN1	9
CN1CCCc2ccc(NC(=O)c3ccc(C#CC(C)(C)C)nc3)cc21	34

----------
Listed here are compounds together with their documented inhibition at 0.3 µM.
biological target: VR1 (Homo sapiens, UniProt Q8NER1); assay: Calcium uptake assay, low pH (proton) stimulus; format: cell-based; design: expressed in transfected cells; host or cells: T-REx HEK 293 (Invitrogen), pcDNA5/TO vector; conditions: HEK293; 0.3 μM compound; low pH agonist; HEK 293 cells expressing hVR1; read-out: Low pH % Inhib. @ 0.3 μM
measurement-kind: inhibition at 0.3 µM (%)

compound	recorded-value
Cc1cc(/C=C/C(F)(F)F)ccc1C(=O)Nc1cnc2ccccc2c1 [Compound 187]	98
O=C(Nc1cccc2cnccc12)c1ccc(/C=C/C(F)(F)F)cc1F [Compound 160]	96
CC(C)(C)C#Cc1ccc(C(=O)Nc2cccc3cnccc23)c(F)c1 [Compound 175]	95
O=C(Nc1ccc2c(c1)OCCN2)c1ccc(/C=C/C(F)(F)F)cc1Cl [Compound 148]	104
O=C(Nc1cccc2cnccc12)c1ccc(C#CC2CC2)cc1 [Compound 48]	99
CC(C)(C)C#Cc1ccc(C(=O)Nc2cccc3cnccc23)cn1 [Compound 23]	98
CC(C)(C)C#Cc1ncc(C(=O)Nc2ccc3c(c2)OCCN3)cn1 [Compound 95]	102
Cc1cc(/C=C/C(F)(F)F)ccc1C(=O)Nc1ccc2cc(CO)cnc2c1 [Compound 228]	100
O=C(Nc1ccc2c(c1)OCCO2)c1ccc(C#CC(F)(F)F)cc1 [Compound 43]	105

----------
Listed here are compounds together with their documented IC50.
target: VR1 (Homo sapiens); test: Acid stimulation assay (FDSS 6000); details: final assay buffer pH5.8, 15 min pre-incubation
Sequence (Q8NER1 whole entry, species assumed): as the sequence (Q8NER1 whole entry) above

compound	tested-target	unit-of-measure	IC50
Cc1cc(C#CC(C)(C)C)ccc1C(=O)Nc1ccc2c(c1)OC[C@H](CO)N2 [Compound 194]	VR1 (Homo sapiens)	nM	3
Cc1cc(/C=C/C(F)(F)F)ccc1C(=O)Nc1ccc2sc(CO)nc2c1 [Compound 225]	VR1 (Homo sapiens)	nM	0.9
Cc1cc(/C=C/C(C)(C)C)ccc1C(=O)Nc1cnc2ccccc2c1 [Compound 210]	VR1 (Homo sapiens)	nM	3
Cc1cc(/C=C/C(F)(F)F)ccc1C(=O)Nc1ccc2c(c1)OC[C@H](CO)N2 [Compound 195]	VR1 (Homo sapiens)	nM	3
CC(C)(C)C#Cc1cc(F)c(C(=O)Nc2cccc3cnccc23)c(F)c1 [Compound 166]	VR1 (Homo sapiens)	nM	8
O=C(Nc1ccc2c(c1)OCC(CO)N2)c1ccc(/C=C/C(F)(F)F)cc1 (stereo not drawn) [Compound 111]	VR1 (Homo sapiens)	nM	5
